tested on: human apolipoprotein B mRNA; assay: Inhibition of human apolipoprotein B mRNA levels in HepG2 cells, quantitative real-time PCR; type: cell-based; conditions: HepG2 cells, 300 nM oligonucleotide, normalized to untreated control, average of two experiments
In the oligonucleotide strings, read from the 5' end, every base follows the letter of its sugar. An asterisk marks phosphorothioate; unmarked linkages are phosphodiester. Other units and linkages are bracketed, terminal groups are in braces. A string of capitals states the bases alone. e = 2'-O-(2-methoxyethyl) (MOE); [5mC] = 5-methylcytosine; d = 2'-deoxy (DNA)
measurement-kind: % inhibition of apolipoprotein B mRNA levels

substance | measurement
308658 (antisense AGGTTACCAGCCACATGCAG; 9-10-1 2'-MOE gapmer, phosphorothioate, chemistry not fully specified) [compound 308658] | 90%
308638 (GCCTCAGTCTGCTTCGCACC; 1-10-9 MOE gapmer, phosphorothioate, chemistry not fully specified) [compound 308638] | 97%
308651 (antisense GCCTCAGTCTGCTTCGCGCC; 7-10-3 2'-MOE gapmer, phosphorothioate, chemistry not fully specified) [compound 308651] | 88%
281625 (antisense eA*eG*eG*eT*eT*dA*d[5mC]*d[5mC]*dA*dG*d[5mC]*d[5mC]*dA*d[5mC]*dA*eT*eG*e[5mC]*eA*eG) [compound 281625] | 94%

---

Tested on: human apolipoprotein B mRNA
Assay: Inhibition of human apolipoprotein B mRNA levels in HepG2 cells, quantitative real-time PCR
Type: cell-based
Details: Table 19 dose response; HepG2 cells, 150 nM; normalized to untreated control
Protocol: The human hepatoblastoma cell line HepG2 was obtained from the American Type Culture Collection (Manassas, Va.). […] Quantitation of apolipoprotein B mRNA levels was determined by real-time quantitative PCR using the ABI PRISM™ 7700 Sequence Detection System (PE-Applied Biosystems, Foster City, Calif.) according to manufacturer's instructions. […]
In the oligonucleotide strings, read from the 5' end, every base follows the letter of its sugar. An asterisk marks phosphorothioate; unmarked linkages are phosphodiester. Other units and linkages are bracketed, terminal groups are in braces. A string of capitals states the bases alone. e = 2'-O-(2-methoxyethyl) (MOE); [5mC] = 5-methylcytosine; d = 2'-deoxy (DNA)
measurement-kind: % inhibition 150 nM (%)

substance | measurement-kind | u | measurement
281625 (antisense eA*eG*eG*eT*eT*dA*d[5mC]*d[5mC]*dA*dG*d[5mC]*d[5mC]*dA*d[5mC]*dA*eT*eG*e[5mC]*eA*eG) [compound 281625] | % inhibition 150 nM | % | 84
301031 (eA*eA*eG*eG*e[5mC]*dT*dG*dG*d[5mC]*dT*d[5mC]*dA*d[5mC]*dT*dG*eT*eA*eT*eG*eG; antisense) [compound 301031] | % inhibition 150 nM | % | 92
301014 (e[5mC]*eA*eG*e[5mC]*e[5mC]*d[5mC]*d[5mC]*dG*d[5mC]*dA*dG*dG*dT*d[5mC]*d[5mC]*e[5mC]*eG*eG*eT*eG; antisense) [compound 301014] | % inhibition 150 nM | % | 96
271009 (antisense eG*e[5mC]*e[5mC]*eT*e[5mC]*dA*dG*dT*d[5mC]*dT*dG*d[5mC]*dT*dT*d[5mC]*eG*e[5mC]*eG*e[5mC]*e[5mC]) [compound 271009] | % inhibition 150 nM | % | 94
301030 (eA*eG*eG*e[5mC]*eT*dG*dG*d[5mC]*dT*d[5mC]*dA*d[5mC]*dT*dG*dT*eA*eT*eG*eG*eT; antisense) [compound 301030] | % inhibition 150 nM | % | 87
301027 (eG*e[5mC]*eT*e[5mC]*eA*d[5mC]*dT*dG*dT*dA*dT*dG*dG*dT*dT*eT*eT*eA*eT*e[5mC]; antisense) [compound 301027] | % inhibition 150 nM | % | 95

---

test system: rabbit apolipoprotein B mRNA; assay: Inhibition of rabbit apolipoprotein B mRNA levels in primary rabbit hepatocytes, real-time PCR; type: cell-based; details: 150 nM, averages from two experiments
In the oligonucleotide strings, read from the 5' end, every base follows the letter of its sugar. An asterisk marks phosphorothioate; unmarked linkages are phosphodiester. Other units and linkages are bracketed, terminal groups are in braces. A string of capitals states the bases alone. e = 2'-O-(2-methoxyethyl) (MOE); [5mC] = 5-methylcytosine; d = 2'-deoxy (DNA)
# reported Percent Inhibition of rabbit apolipoprotein B mRNA levels; entries follow
measurement-kind: Percent Inhibition of rabbit apolipoprotein B mRNA levels

substance | tgt | measurement
233160 (antisense eA*eT*eT*eG*eG*dA*dA*dT*dA*dA*dT*dG*dT*dA*dT*e[5mC]*e[5mC]*eA*eG*eG) [compound 233160] | rabbit apolipoprotein B mRNA | 74%
233172 (antisense eA*eT*eG*eG*eA*dA*dG*dA*d[5mC]*dT*dG*dG*d[5mC]*dA*dG*e[5mC]*eT*e[5mC]*eT*eA) [compound 233172] | rabbit apolipoprotein B mRNA | 81%
233183 (antisense e[5mC]*eA*eG*eT*eG*dT*dA*dA*dT*dG*dA*dT*d[5mC]*dG*dT*eT*eG*eA*eT*eT) [compound 233183] | rabbit apolipoprotein B mRNA | 81%
233175 (antisense eG*eA*e[5mC]*e[5mC]*eT*dT*dG*dA*dG*dT*dA*dG*dA*dT*dT*e[5mC]*e[5mC]*eT*eG*eG) [compound 233175] | rabbit apolipoprotein B mRNA | 90%
233166 (antisense eG*eG*eA*eT*e[5mC]*dA*d[5mC]*dA*dT*dG*dA*d[5mC]*dT*dG*dA*eA*eT*eG*e[5mC]*eT) [compound 233166] | rabbit apolipoprotein B mRNA | 79%

---

Assay: Toxicity in C57BL/6 mice, two weeks (Example 48): liver enzyme levels, body, liver and spleen weight
Format: in vivo, mouse
Conditions: 25 mg/kg i.p. twice a week
Experimental: C57BL/6 mice were divided into two groups—one group receiving oligonucleotide treatment and control animals receiving saline treatment. After overnight fasting, mice were dosed intraperitoneally twice a week with saline or 25 mg/kg of one of several oligonucleotides for two weeks. […]
In the oligonucleotide strings, read from the 5' end, every base follows the letter of its sugar. An asterisk marks phosphorothioate; unmarked linkages are phosphodiester. Other units and linkages are bracketed, terminal groups are in braces. A string of capitals states the bases alone. e = 2'-O-(2-methoxyethyl) (MOE); [5mC] = 5-methylcytosine; d = 2'-deoxy (DNA)

substance | Liver Enzymes ALT
281625 (antisense eA*eG*eG*eT*eT*dA*d[5mC]*d[5mC]*dA*dG*d[5mC]*d[5mC]*dA*d[5mC]*dA*eT*eG*e[5mC]*eA*eG) [compound 281625] | 36.2 IU/L
301012 (eG*e[5mC]*e[5mC]*eT*e[5mC]*dA*dG*dT*d[5mC]*dT*dG*d[5mC]*dT*dT*d[5mC]*eG*e[5mC]*eA*e[5mC]*e[5mC]) [compound 301012] | 21.2 IU/L
301027 (eG*e[5mC]*eT*e[5mC]*eA*d[5mC]*dT*dG*dT*dA*dT*dG*dG*dT*dT*eT*eT*eA*eT*e[5mC]; antisense) [compound 301027] | 221.3 IU/L
233175 (antisense eG*eA*e[5mC]*e[5mC]*eT*dT*dG*dA*dG*dT*dA*dG*dA*dT*dT*e[5mC]*e[5mC]*eT*eG*eG) [compound 233175] | 230.2 IU/L
233172 (antisense eA*eT*eG*eG*eA*dA*dG*dA*d[5mC]*dT*dG*dG*d[5mC]*dA*dG*e[5mC]*eT*e[5mC]*eT*eA) [compound 233172] | 43.3 IU/L

---

# reported % inhibition of apolipoprotein B mRNA levels; entries follow
tested on: human apolipoprotein B mRNA; assay: Inhibition of human apolipoprotein B mRNA levels in HepG2 cells, quantitative real-time PCR; format: cell-based; conditions: HepG2 cells, 37 nM oligonucleotide, normalized to untreated control, average of two experiments
In the oligonucleotide strings, read from the 5' end, every base follows the letter of its sugar. An asterisk marks phosphorothioate; unmarked linkages are phosphodiester. Other units and linkages are bracketed, terminal groups are in braces. A string of capitals states the bases alone. e = 2'-O-(2-methoxyethyl) (MOE); [5mC] = 5-methylcytosine; d = 2'-deoxy (DNA)
measurement-kind: % inhibition of apolipoprotein B mRNA levels (%)

substance | measurement
308651 (antisense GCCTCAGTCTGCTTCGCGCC; 7-10-3 2'-MOE gapmer, phosphorothioate, chemistry not fully specified) [compound 308651] | 76
271009 (antisense eG*e[5mC]*e[5mC]*eT*e[5mC]*dA*dG*dT*d[5mC]*dT*dG*d[5mC]*dT*dT*d[5mC]*eG*e[5mC]*eG*e[5mC]*e[5mC]) [compound 271009] | 86
281625 (antisense eA*eG*eG*eT*eT*dA*d[5mC]*d[5mC]*dA*dG*d[5mC]*d[5mC]*dA*d[5mC]*dA*eT*eG*e[5mC]*eA*eG) [compound 281625] | 66
301012 (eG*e[5mC]*e[5mC]*eT*e[5mC]*dA*dG*dT*d[5mC]*dT*dG*d[5mC]*dT*dT*d[5mC]*eG*e[5mC]*eA*e[5mC]*e[5mC]) [compound 301012] | 79
